B1: Twister Ribozyme (parent)
chain: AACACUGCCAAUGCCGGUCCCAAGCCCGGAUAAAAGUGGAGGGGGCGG

Variants of: B1
test_summary: self-cleavage, relative activity (ratio to wild type); higher = more cleavage; co-transcriptional
property_name: self-cleavage
Form: value (number only, do not type unit).

Below, each entry is followed by its recorded self-cleavage result.
G16C C19G; 0.1
C5A A35C; 0.655
A22U G45C; 0.401
A2C A4G; 0.0453
A10C U37G; 0.692

self-cleavage recorded for this variant, A30U G45U , is 0.798

Please fill in: self-cleavage reported for U18A A30G = 0.606

Reported self-cleavage for A11C A35G was 0.574
